# ASSAY_NOTES: physchem
# ASSAY_CONDITIONS: pH 7.4, aqueous buffer
PROPERTY: solubility

IN: Read the entry Cc1cccc([C@H](C)c2cnc[nH]2)c1C and write its reported solubility.
OUT: ~150 µg/mL

* * *

# ASSAY_NOTES: physchem
# ASSAY_CONDITIONS: pH 6.4, aqueous buffer
PROPERTY: solubility

IN: Read the entry Cc1cccc([C@H](C)c2cnc[nH]2)c1C and write its reported solubility.
OUT: ~0.6 mg/mL

* * *

# ASSAY_NOTES: physchem
# ASSAY_CONDITIONS: pH 6, aqueous buffer
PROPERTY: solubility (µg/mL)
Write it as a number; the unit µg/mL goes unstated.

IN: Read the entry Cc1cccc([C@H](C)c2cnc[nH]2)c1C and write its reported solubility.
OUT: 1950

Reference source: patent US20110244058A1
